EXPERIMENTAL_SYSTEM: Phosphodiesterase 3B (Bos taurus, UniProt E1BN64)
Sequence (E1BN64 whole entry): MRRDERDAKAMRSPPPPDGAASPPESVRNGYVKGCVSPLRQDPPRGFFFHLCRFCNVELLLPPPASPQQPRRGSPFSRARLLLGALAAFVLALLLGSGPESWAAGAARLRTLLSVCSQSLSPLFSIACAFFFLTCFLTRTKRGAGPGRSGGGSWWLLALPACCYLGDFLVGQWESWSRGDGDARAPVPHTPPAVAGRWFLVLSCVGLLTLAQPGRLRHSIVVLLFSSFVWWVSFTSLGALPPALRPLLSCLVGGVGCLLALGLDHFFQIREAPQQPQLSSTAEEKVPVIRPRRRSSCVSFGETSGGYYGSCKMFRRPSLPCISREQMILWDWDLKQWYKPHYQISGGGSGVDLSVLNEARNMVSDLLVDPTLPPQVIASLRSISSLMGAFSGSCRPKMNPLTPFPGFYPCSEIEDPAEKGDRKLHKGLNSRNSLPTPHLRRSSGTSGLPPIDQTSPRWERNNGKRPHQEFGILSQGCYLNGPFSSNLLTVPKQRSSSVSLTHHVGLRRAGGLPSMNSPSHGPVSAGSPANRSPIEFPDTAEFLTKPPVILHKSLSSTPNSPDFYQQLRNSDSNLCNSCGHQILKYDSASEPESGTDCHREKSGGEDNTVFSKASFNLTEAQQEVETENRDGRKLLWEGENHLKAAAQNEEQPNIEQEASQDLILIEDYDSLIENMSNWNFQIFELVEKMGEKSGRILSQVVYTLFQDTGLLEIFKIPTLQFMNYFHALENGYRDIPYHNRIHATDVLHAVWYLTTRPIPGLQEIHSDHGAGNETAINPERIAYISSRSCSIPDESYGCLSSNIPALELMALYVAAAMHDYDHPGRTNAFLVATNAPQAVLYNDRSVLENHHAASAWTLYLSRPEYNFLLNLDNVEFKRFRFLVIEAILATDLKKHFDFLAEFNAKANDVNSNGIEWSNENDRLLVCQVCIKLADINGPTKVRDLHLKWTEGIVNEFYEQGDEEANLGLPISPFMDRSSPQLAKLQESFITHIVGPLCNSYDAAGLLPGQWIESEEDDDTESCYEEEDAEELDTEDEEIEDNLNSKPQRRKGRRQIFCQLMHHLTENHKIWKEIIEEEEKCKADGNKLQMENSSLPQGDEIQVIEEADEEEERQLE
MEASURED_PARAMETER: Ki (µM)
Report the figure in µM without appending any unit label.

For the compound Cn1c(=O)c2nc[nH]c2n(C)c1=O [THEOPHYLLINE] , what Ki is on record? 77

---

EXPERIMENTAL_SYSTEM: Phosphodiesterase 3B (Bos taurus)
PROTOCOL_DESCRIPTION: In vitro inhibition of Phosphodiesterase isolated from bovine heart.
MEASURED_PARAMETER: Inhibitory activity
Lab note: jot the number down without any unit.

For the record Cc1cc(C)n2nc(SCc3ccccc3C)nc2n1 , what value of Inhibitory activity is listed for Phosphodiesterase 3B (Bos taurus)? 6.9

For the record Cc1cc(O)n2nc(SCc3ccccc3)nc2n1 , what value of Inhibitory activity is listed for Phosphodiesterase 3B (Bos taurus)? 0.4

For the record Cc1cccc(CSc2nc3nc(C)cc(C)n3n2)c1 , what value of Inhibitory activity is listed for Phosphodiesterase 3B (Bos taurus)? 6.6

For the record Cc1cc(NN(C)C)n2nc(SCc3ccccc3)nc2n1 , what value of Inhibitory activity is listed for Phosphodiesterase 3B (Bos taurus)? 5.3

For the record Cc1cc(C)n2nc(SCCc3ccccc3)nc2n1 , what value of Inhibitory activity is listed for Phosphodiesterase 3B (Bos taurus)? 2.5

For the record Cc1cc(N(C)C)n2nc(SCc3ccccc3)nc2n1 , what value of Inhibitory activity is listed for Phosphodiesterase 3B (Bos taurus)? 6.3

For the record Cc1cc(C)n2nc(SCC(C)C)nc2n1 , what value of Inhibitory activity is listed for Phosphodiesterase 3B (Bos taurus)? 0.1

For the record Cc1cc(N(CCO)CCO)n2nc(SCc3ccccc3)nc2n1 , what value of Inhibitory activity is listed for Phosphodiesterase 3B (Bos taurus)? 2.5

For the record Cc1cc(C)n2nc(SC(C)C)nc2n1 , what value of Inhibitory activity is listed for Phosphodiesterase 3B (Bos taurus)? 0.1

For the record Cc1cc(N2CCCCC2)n2nc(SCc3ccccc3)nc2n1 , what value of Inhibitory activity is listed for Phosphodiesterase 3B (Bos taurus)? 11

For the record CSc1nc2nc(C)cc(C)n2n1 , what value of Inhibitory activity is listed for Phosphodiesterase 3B (Bos taurus)? 0.3
